- Tested on: c-Src;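 also: 11-residue human phosphosite peptides and single-mutation variants displayed on the E. coli surface, counted by deep sequencing, each peptide's frequency after selection divided by its frequency in the unselected input library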;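 also: frequency after pTyr selection over input frequency; kinase dosed for 20-30% of maximal phosphorylation in three min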
- PROCEDURE_TEXT: phosphorylation enrichment, bacterial display (enrichment ratio); higher = better substrate or ligand; peptides without Tyr show the background
Recorded measurements of phosphorylation enrichment, one per entry

{"CONSTRUCT_SEQUENCE": "PVKDGYQMAQP [CSF1R_Y873_L868P]", "EXPERIMENTAL_SYSTEM": "c-Src", "phosphorylation enrichment": 0.574}
{"CONSTRUCT_SEQUENCE": "HVIKLFGACSQ [RET_Y791_Y791F]", "EXPERIMENTAL_SYSTEM": "c-Src", "phosphorylation enrichment": 0.519}
{"CONSTRUCT_SEQUENCE": "PTTKTYFPHFH [HBA1_Y43_D48H]", "EXPERIMENTAL_SYSTEM": "c-Src", "phosphorylation enrichment": 0.655}
{"CONSTRUCT_SEQUENCE": "DPASAYADEVK [ETNPPL_Y189_S185P]", "EXPERIMENTAL_SYSTEM": "c-Src", "phosphorylation enrichment": 0.416}
{"CONSTRUCT_SEQUENCE": "GGTTLYPGIAD [ACTC1_Y308_M307L]", "EXPERIMENTAL_SYSTEM": "c-Src", "phosphorylation enrichment": 0.363}
{"CONSTRUCT_SEQUENCE": "ERPGVYTNVVE [F11_Y608]", "EXPERIMENTAL_SYSTEM": "c-Src", "phosphorylation enrichment": 0.442}
{"CONSTRUCT_SEQUENCE": "ALCHYYKLNII [ETV6_Y402_R399C]", "EXPERIMENTAL_SYSTEM": "c-Src", "phosphorylation enrichment": 1.54}
{"CONSTRUCT_SEQUENCE": "KPNMNYDKLSR [FLI1_Y332]", "EXPERIMENTAL_SYSTEM": "c-Src", "phosphorylation enrichment": 0.418}
{"CONSTRUCT_SEQUENCE": "TPLSAYQIPRT [GAB2_Y324]", "EXPERIMENTAL_SYSTEM": "c-Src", "phosphorylation enrichment": 0.435}
{"CONSTRUCT_SEQUENCE": "KLQKKYGPISS [CYP17A1_Y60_Y64S]", "EXPERIMENTAL_SYSTEM": "c-Src", "phosphorylation enrichment": 0.364}
{"CONSTRUCT_SEQUENCE": "RSSKTYLKTRS [LPL_Y329_M328T]", "EXPERIMENTAL_SYSTEM": "c-Src", "phosphorylation enrichment": 0.856}
{"CONSTRUCT_SEQUENCE": "EALDFYGEVKT [PTEN_Y155_R159K]", "EXPERIMENTAL_SYSTEM": "c-Src", "phosphorylation enrichment": 1.21}
{"CONSTRUCT_SEQUENCE": "CTTNHYNFMCN [TP53_Y234_I232N_YF]", "EXPERIMENTAL_SYSTEM": "c-Src", "phosphorylation enrichment": 0.497}
{"CONSTRUCT_SEQUENCE": "ATGGFYSYGGG [KRT24_Y120]", "EXPERIMENTAL_SYSTEM": "c-Src", "phosphorylation enrichment": 1.26}

###

- EXPERIMENTAL_SYSTEM: SHP2-C SH2;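 also: peptide library displayed on the E. coli surface as eCPX fusions, selected cells deep-sequenced, score is each peptide's frequency after selection divided by its frequency in the input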
- PROCEDURE_TEXT: SH2 binding enrichment of the phosphorylated peptide, bacterial display (enrichment ratio); higher = better substrate or ligand; peptides without Tyr show the background
Binary call on SH2 binding enrichment: 1 from 0.7 upward, 0 beneath that.

{"CONSTRUCT_SEQUENCE": "YRDALYKSMVD [PHEX_Y250_F252S]", "LABEL_VALUE": 0}
{"CONSTRUCT_SEQUENCE": "SDVCMYRKNTF [SYNE2_Y570_I574T_YF]", "LABEL_VALUE": 1}
{"CONSTRUCT_SEQUENCE": "PLDGEYFTLHI [TP53_Y327_Q331H]", "LABEL_VALUE": 0}
{"CONSTRUCT_SEQUENCE": "CPYNLYAAQLS [HGD_Y40_E42A]", "LABEL_VALUE": 0}
{"CONSTRUCT_SEQUENCE": "SQSAKYDMAED [TTC21B_Y1213_I1208S]", "LABEL_VALUE": 0}
{"CONSTRUCT_SEQUENCE": "CEHFSYFGMKA [SLC15A2_Y60_R57H_YF]", "LABEL_VALUE": 0}
{"CONSTRUCT_SEQUENCE": "ASELGYVFQAI [UROD_Y133]", "LABEL_VALUE": 0}
{"CONSTRUCT_SEQUENCE": "LGLDEYLDKLK [FMNL2_Y352]", "LABEL_VALUE": 0}
{"CONSTRUCT_SEQUENCE": "RGFDTYFGFLL [ARSB_Y165_YF]", "LABEL_VALUE": 1}
{"CONSTRUCT_SEQUENCE": "LINSVYGCSRQ [TMPRSS6_Y290_T287N]", "LABEL_VALUE": 1}
{"CONSTRUCT_SEQUENCE": "RLLRGYDQSAY [HLA-C_Y137]", "LABEL_VALUE": 1}
